B1: Androgen receptor, residues 557 to 632; numbered along this chain, P10275 (parent)
chain: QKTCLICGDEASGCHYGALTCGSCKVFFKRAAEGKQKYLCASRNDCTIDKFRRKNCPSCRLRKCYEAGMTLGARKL

- Variants of: B1
- assay summary: abundance fitness (aPCA) (normalised: wild type 0, dead -1); higher = more abundant; growth selection in yeast, the domain comes from the species named
- condition details: Homo sapiens
readout kind: abundance fitness
Answers are plain numbers.

INSERT INTO assay_data (mutation_code, readout_kind, value) VALUES
  ('A41I', 'abundance fitness', -0.275);

Provide each entry's abundance fitness from the list below.
1. Y38T
2. A18C
3. C46V

-0.179
-0.084
-0.942
